Molecular target: human IL-23R (Homo sapiens, UniProt Q5VWK5)
Sequence (Q5VWK5 22-629): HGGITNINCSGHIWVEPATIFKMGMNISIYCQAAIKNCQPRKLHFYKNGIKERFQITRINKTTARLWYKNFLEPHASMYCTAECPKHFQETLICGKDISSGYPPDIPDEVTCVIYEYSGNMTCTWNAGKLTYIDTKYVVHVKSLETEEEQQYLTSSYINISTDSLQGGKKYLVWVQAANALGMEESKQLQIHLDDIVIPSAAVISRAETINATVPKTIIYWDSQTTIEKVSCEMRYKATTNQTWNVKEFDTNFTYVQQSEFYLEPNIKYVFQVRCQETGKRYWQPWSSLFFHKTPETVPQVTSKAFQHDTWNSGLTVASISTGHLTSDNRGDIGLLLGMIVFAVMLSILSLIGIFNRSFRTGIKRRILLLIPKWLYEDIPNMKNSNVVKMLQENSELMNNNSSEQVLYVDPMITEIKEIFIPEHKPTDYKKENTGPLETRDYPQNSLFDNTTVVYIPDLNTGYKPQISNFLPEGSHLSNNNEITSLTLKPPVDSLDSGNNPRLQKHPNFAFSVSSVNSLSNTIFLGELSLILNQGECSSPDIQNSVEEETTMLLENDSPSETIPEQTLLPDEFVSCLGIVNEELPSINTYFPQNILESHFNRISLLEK
Assay: biochemical
*1 amine or outer side, *2 acyl side, *3 side chain or, on linkers, in order; H or OH if unused. Where a SMILES comes first, the peptide text is derived from it. Bridges are numbered along the chain shown (N, C = ends). [ ]: non-standard residue; d: D form. 2Nal = N[C@@H](Cc1ccc2ccccc2c1)C(=O)O; AEF = NCCOc1ccc(C[C@H](N)C(=O)O)cc1; X1 = O=C(Cc1ccc(CN[*:1])cc1)[*:2]; αMeL = CC(C)C[C@](C)(N)C(=O)O; CH2COCH2 = O=C(C[*:1])C[*:2]; 3Amb = NCc1cccc(C(=O)O)c1; NMeS = CN[C@@H](CO)C(=O)O; Dab = NCC[C@H](N)C(=O)O
measurement-label: % displacement (hIL-23R NIuc) (%)

molecule: CNC(=O)[C@H](Cc1cccnc1)NC(=O)[C@H](CCN)NC(=O)[C@@H]1CCC(=O)NCCCC[C@@H]2NC(=O)CC[C@H](NC(=O)[C@H](CCC(N)=O)NC(=O)[C@H](Cc3c[nH]c4ccccc34)NC(=O)CCN(C)C2=O)C(=O)N[C@@H](Cc2ccc(OCCN)cc2)C(=O)N[C@@H](Cc2ccc3ccccc3c2)C(=O)N[C@@](C)(CC(C)C)C(=O)N1
result-unit: %
recorded-measurement: 103
//
molecule: CNC(=O)[C@H](Cc1cccnc1)NC(=O)[C@H](CCN)NC(=O)[C@@H]1CCC(=O)NCCCC[C@@H]2NC(=O)CC[C@H](NC(=O)[C@H](CCC(N)=O)NC(=O)[C@H](Cc3c[nH]c4ccccc34)NC(=O)C[C@H]([C@@H](C)O)NC2=O)C(=O)N[C@@H](Cc2ccc(OCCN)cc2)C(=O)N[C@@H](Cc2ccc3ccccc3c2)C(=O)N[C@@](C)(CC(C)C)C(=O)N1
result-unit: %
recorded-measurement: 101
//
molecule: CC(C)C[C@]1(C)NC(=O)[C@H](Cc2ccc3ccccc3c2)NC(=O)[C@H](Cc2ccc(OCCN)cc2)NC(=O)[C@@H]2CSCC(=O)CSC[C@H](NC(=O)[C@H](CO)NC(=O)Cc3ccc(cc3)CNC(=O)CC[C@@H](C(=O)N[C@@H](CCN)C(N)=O)NC1=O)C(=O)N[C@@H](Cc1c[nH]c3ccccc13)C(=O)N[C@@H](CCC(N)=O)C(=O)N2 [Ref 82, reference compound] ([X1]SCWQC[AEF][2Nal][αMeL]E[Dab]-NH2; linker 3-6 via CH2COCH2; lactam N-10)
result-unit: %
recorded-measurement: 103
//
molecule: CNC(=O)[C@H](Cc1cccnc1)NC(=O)[C@H](Cc1cnc[nH]1)NC(=O)[C@@H]1CCC(=O)NCCCC[C@@H]2NC(=O)CC[C@H](NC(=O)[C@H](CCC(N)=O)NC(=O)[C@H](Cc3c[nH]c4ccccc34)NC(=O)CCNC2=O)C(=O)N[C@@H](Cc2ccc(OCCN)cc2)C(=O)N[C@@H](Cc2ccc3ccccc3c2)C(=O)N[C@@](C)(CC(C)C)C(=O)N1
result-unit: %
recorded-measurement: 101
//
molecule: CC[C@H](C)[C@@H]1NC(=O)[C@@H]2CCCCNC(=O)CC[C@@H](C(=O)NCCc3cccnc3)NC(=O)[C@](C)(C(C)C)NC(=O)[C@H](Cc3ccc4ccccc4c3)NC(=O)[C@H](Cc3ccc(OCCN)cc3)NC(=O)[C@H](CCC(=O)N2)NC(=O)[C@H](CCC(N)=O)NC(=O)[C@H](Cc2c[nH]c3ccccc23)NC(=O)[C@H](C(C)C)NC1=O
result-unit: %
recorded-measurement: 101
//
molecule: CC(C)C[C@@H]1NC(=O)[C@H](Cc2ccc3ccccc3c2)NC(=O)[C@H](Cc2c[nH]c3ccccc23)NC(=O)[C@@H]2CSCC(=O)CSC[C@H](NC(=O)[C@H](CO)NC(=O)c3cccc(c3)CNC(=O)CC[C@@H](C(=O)N[C@@H](CCCNC(=N)N)C(N)=O)NC1=O)C(=O)N[C@@H](Cc1c[nH]c3ccccc13)C(=O)N[C@@H](CCC(N)=O)C(=O)N2 [Ref 37, reference compound] ([3Amb]SCWQCW[2Nal]LER-NH2; linker 3-6 via CH2COCH2; lactam N-10)
result-unit: %
recorded-measurement: 103
//
molecule: CC(C)C[C@]1(C)NC(=O)[C@H](Cc2ccc3ccccc3c2)NC(=O)[C@H](Cc2ccc(OCCN)cc2)NC(=O)[C@@H]2CCNC(=O)CC[C@H](NC(=O)[C@H](CO)NC(=O)Cc3ccc(cc3)CNC(=O)CC[C@@H](C(=O)N[C@@H](CCN)C(N)=O)NC1=O)C(=O)N[C@@H](Cc1c[nH]c3ccccc13)C(=O)N[C@@H](CCC(N)=O)C(=O)N2 [Ref 125, reference compound]
result-unit: %
recorded-measurement: 101
//
molecule: CC[C@H](C)[C@@H]1NC(=O)[C@@H]2CCCCNC(=O)CC[C@@H](C(=O)N[C@@H](CCN)C(=O)N[C@H](Cc3cccnc3)C(N)=O)NC(=O)[C@](C)(C(C)C)NC(=O)[C@H](Cc3ccc4ccccc4c3)NC(=O)[C@H](Cc3ccc(C)cc3)NC(=O)[C@H](CCC(=O)N2)NC(=O)[C@H](CCC(N)=O)NC(=O)[C@H](Cc2c[nH]c3ccccc23)NC(=O)[C@H](C(C)C)NC1=O
result-unit: %
recorded-measurement: 100
//
molecule: CC(C)C[C@]1(C)NC(=O)[C@H](Cc2ccc3ccccc3c2)NC(=O)[C@H](Cc2ccc(OCCN)cc2)NC(=O)[C@@H]2CSCC(=O)CSC[C@H](NC(=O)[C@H](CO)N(C)C(=O)Cc3ccc(cc3)CNC(=O)CC[C@@H](C(=O)N[C@@H](CCN)C(N)=O)NC1=O)C(=O)N[C@@H](Cc1c[nH]c3ccccc13)C(=O)N[C@@H](CCC(N)=O)C(=O)N2 [Ref 141, reference compound] ([X1][NMeS]CWQC[AEF][2Nal][αMeL]E[Dab]-NH2; linker 3-6 via CH2COCH2; lactam N-10)
result-unit: %
recorded-measurement: 102
//
molecule: CC(C)C[C@]1(C)NC(=O)[C@H](Cc2ccc3ccccc3c2)NC(=O)[C@H](Cc2ccc(OCCN)cc2)NC(=O)[C@@H]2CCC(=O)N[C@H](CCCCNC(=O)CC[C@@H](C(=O)N[C@@H](CCN)C(=O)N[C@@H](Cc3cccnc3)C(N)=O)NC1=O)C(=O)N[C@@H]([C@@H](C)O)C(=O)N[C@@H](C(C)C)C(=O)N[C@@H](Cc1c[nH]c3ccccc13)C(=O)N[C@@H](CCC(N)=O)C(=O)N2
result-unit: %
recorded-measurement: 103
